- measured on: HIV-1 CAP45.2.00.G3 envelope (Env) on Env.IMC.LucR virus (HIV-1 clade C)
- assay overview: cell-based or functional assay
recorded endpoint: IC50 of virus neutralization (TZM-BL, luciferase) (µg/mL)

Germ6 (antibody, V domains shown) VH: ADLVQSGAVVKKPGDSVRVSCEAQGYRFPDYIIHWIRRAPGQGPEWMGWMNPMGGQVNIPWKFQGRVSMTRDTSIETAYLDLRGLKSDDTAVYYCVRDRSNGSGKRFESSNWFLDLWGRGTAVTVQS VL: QSALTQPRSVSGSPGQSVTISCTGTHNLVSWCQHQPGRAPKLLIYDFNKRPSGVPDRFSGSGSGGTASLTISGLQDEDDAEYFCWAYEAFGGGTKLTVL = 0.135
